Numbers sourced from ChEMBL document CHEMBL4118103.

test system: Pseudomonas aeruginosa; assay: Antibacterial activity against Pseudomonas aeruginosa ATCC 27853 after 18 hrs by agar dilution method; assay type: functional; conditions: ATCC 27853, 18 h
Bridge positions count the residues as written; N and C are the ends. Square brackets hold non-standard residues; d marks the D form. Peptide text beside a SMILES is read from it. * marks the point of attachment. Heptanoyl(6-Me) = CC(C)CCCCC(=O)*; Nonanoyl = CCCCCCCCC(=O)*; X1 = CC[C@H](C)CCCCC(=O)*; Octanoyl = CCCCCCCC(=O)*; Dab = NCC[C@H](N)C(=O)O; Nva = CCC[C@H](N)C(=O)O

| Compound | Target | Unit info | MIC |
| --- | --- | --- | --- |
| CC[C@H](C)CCCCC(=O)N[C@@H](CCN)C(=O)N[C@H](C(=O)N[C@@H](CCN)C(=O)N[C@H]1CCNC(=O)[C@H]([C@@H](C)O)NC(=O)[C@H](CCN)NC(=O)[C@H](CCN)NC(=O)[C@H]([C@@H](C)O)NC(=O)[C@@H](CC(C)C)NC(=O)[C@H](CCN)NC1=O)[C@@H](C)O (X1-[Dab]T[Dab][Dab][Dab][dL]T[Dab][Dab]T; lactam 4-C) | Pseudomonas aeruginosa | µg/mL | 1 |
| CCC[C@@H]1NC(=O)[C@@H](CC(C)C)NC(=O)[C@H](CCN)NC(=O)[C@@H](NC(=O)[C@H](CCN)NC(=O)[C@@H](NC(=O)[C@H](CCN)NC(=O)CCCCC(C)C)[C@@H](C)O)CCNC(=O)[C@H]([C@@H](C)O)NC(=O)[C@H](CCN)NC(=O)[C@H](CCN)NC1=O ({Heptanoyl(6-Me)}-[Dab]T[Dab][Dab][Dab][dL][Nva][Dab][Dab]T; lactam 4-C) | Pseudomonas aeruginosa | µg/mL | 1 |
| CC(C)CCCCC(=O)N[C@@H](CCN)C(=O)N[C@H](C(=O)N[C@@H](CCN)C(=O)N[C@H]1CCNC(=O)[C@H]([C@@H](C)O)NC(=O)[C@H](CCN)NC(=O)[C@H](CCN)NC(=O)[C@H](CC(C)C)NC(=O)[C@@H](CC(C)C)NC(=O)[C@H](CCN)NC1=O)[C@@H](C)O [COLISTIN B] ({Heptanoyl(6-Me)}-[Dab]T[Dab][Dab][Dab][dL]L[Dab][Dab]T; lactam 4-C) | Pseudomonas aeruginosa | µg/mL | 2 |
| CCCCCCCCC(=O)N[C@@H](CCN)C(=O)N[C@H](C(=O)N[C@@H](CCN)C(=O)N[C@H]1CCNC(=O)[C@H]([C@@H](C)O)NC(=O)[C@H](CCN)NC(=O)[C@H](CCN)NC(=O)[C@H](CC(C)C)NC(=O)[C@@H](Cc2ccccc2)NC(=O)[C@H](CCN)NC1=O)[C@@H](C)O [POLYMYXIN B5] (Nonanoyl-[Dab]T[Dab][Dab][Dab][dF]L[Dab][Dab]T; lactam 4-C) | Pseudomonas aeruginosa | µg/mL | 4 |
| CC[C@H](C)[C@@H]1NC(=O)[C@@H](CC(C)C)NC(=O)[C@H](CCN)NC(=O)[C@@H](NC(=O)[C@H](CCN)NC(=O)[C@@H](NC(=O)[C@H](CCN)NC(=O)CCCCC(C)C)[C@@H](C)O)CCNC(=O)[C@H]([C@@H](C)O)NC(=O)[C@H](CCN)NC(=O)[C@H](CCN)NC1=O | Pseudomonas aeruginosa | µg/mL | 2 |
| CCCCCCCC(=O)N[C@@H](CCN)C(=O)N[C@H](C(=O)N[C@@H](CCN)C(=O)N[C@H]1CCNC(=O)[C@H]([C@@H](C)O)NC(=O)[C@H](CCN)NC(=O)[C@H](CCN)NC(=O)[C@H](CC(C)C)NC(=O)[C@@H](Cc2ccccc2)NC(=O)[C@H](CCN)NC1=O)[C@@H](C)O (Octanoyl-[Dab]T[Dab][Dab][Dab][dF]L[Dab][Dab]T; lactam 4-C) | Pseudomonas aeruginosa | µg/mL | 1 |
